All figures here come from ChEMBL document CHEMBL4312020.

experiment: MRT in Sprague-Dawley rat at 50 mg/kg, po measured upto 24 hrs by LC-MS/MS analysis; format: ADME, organism-based; conditions: in vivo
quantity_kind: MRT (h)
Use h as the unit, but write only the number.

For CCC(CC)O[C@@H]1C=C(C(=O)O)C[C@H](Nc2ncccc2N)[C@H]1NC(C)=O , what is its reported MRT?
2.12

----------
target: Neuraminidase (Influenza A virus (A/Puerto Rico/8/1934(H1N1)), UniProt P03468); parameters: species or system Influenza A virus (A/Anhui/1/2005(H5N1))
Sequence (P03468 whole entry): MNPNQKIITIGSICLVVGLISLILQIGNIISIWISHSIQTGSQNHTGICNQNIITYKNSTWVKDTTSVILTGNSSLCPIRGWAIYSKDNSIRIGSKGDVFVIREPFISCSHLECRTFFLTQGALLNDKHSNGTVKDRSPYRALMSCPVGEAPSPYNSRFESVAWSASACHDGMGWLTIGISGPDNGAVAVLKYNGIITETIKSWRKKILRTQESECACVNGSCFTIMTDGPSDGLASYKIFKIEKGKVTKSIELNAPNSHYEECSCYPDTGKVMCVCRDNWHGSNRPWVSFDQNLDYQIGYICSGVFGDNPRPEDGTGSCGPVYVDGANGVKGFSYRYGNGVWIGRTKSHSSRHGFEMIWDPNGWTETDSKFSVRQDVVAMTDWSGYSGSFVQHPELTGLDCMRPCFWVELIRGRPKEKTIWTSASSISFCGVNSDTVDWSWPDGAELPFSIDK
quantity_kind: IC50

// query IC50 value for entry CCC(CC)O[C@@H]1C=C(C(=O)O)C[C@H](Nc2ncccc2N)[C@H]1NC(C)=O
0.32 µM

----------
Reported values of remaining at 1 h for individual entries
experiment: Stability in human plasma assessed as compound remaining incubated for 60 mins by LC-MS/MS analysis; type: ADME, cell-free; details: read-out: Stability
All answers are understood in %, so give the number only.

I'd like to know its remaining at 1 h. The molecule in question is CC(C)[N+](C)(CCOC(=O)C1c2ccccc2Oc2ccccc21)C(C)C [PROPANTHELINE BROMIDE]
10.1

Any idea what its remaining at 1 h is? The molecule is CCC(CC)O[C@@H]1C=C(C(=O)O)C[C@H](Nc2ncccc2N)[C@H]1NC(C)=O
113

----------
test: Half life in Sprague-Dawley rat at 50 mg/kg, po measured upto 24 hrs by LC-MS/MS analysis; assay type: ADME, organism-based; details: in vivo
quantity_kind: half-life (h)
Reply with just the number (in h).

I'd like to know its half-life. The compound in question is CCC(CC)O[C@@H]1C=C(C(=O)O)C[C@H](Nc2ncccc2N)[C@H]1NC(C)=O
1.57

----------
molecular target: Neuraminidase (Influenza A virus (A/Puerto Rico/8/1934(H1N1))) (UniProt P03468); settings: Influenza A virus (A/Anhui/1/2005(H5N1)); at 10 µM
Sequence (P03468 whole entry): as above
quantity_kind: inhibition (%)
Kindly provide the numeric value in % only, without the unit symbol.

In [3]: df
Out[3]:
                               query_smiles                             target_system  quantity_kind  units  quantitative_readout
0  CCC(CC)O[C@@H]1C=C(C(=O)O)C[C@H](Nc2ccc(N)cn2)[C@H]1NC(C)=O  Neuraminidase (Influenza A virus (A/Puerto Rico/8/1934(H1N1))) (UniProt P03468)     inhibition      %                    30

Look up inhibition for this molecule: CCC(CC)O[C@@H]1C=C(C(=O)O)C[C@H](Nc2ncccc2N)[C@H]1NC(C)=O
87.6

Fill blank: measured inhibition of the molecule CCC(CC)O[C@@H]1C=C(C(=O)O)C[C@H](Nc2ncc(C)cc2N)[C@H]1NC(C)=O is ____.
25.9

Requested read-out: inhibition. Entry: CCC(CC)O[C@@H]1C=C(C(=O)O)C[C@H](Nc2nc(OC)ccc2N)[C@H]1NC(C)=O
41.3

Consider the molecule CCC(CC)O[C@@H]1C=C(C(=O)O)C[C@H](Nc2ncc(Br)cc2N)[C@H]1NC(C)=O and give its measured inhibition.
26.8

inhibition for CCC(CC)O[C@@H]1C=C(C(=O)O)C[C@H](Nc2nccc(C)c2N)[C@H]1NC(C)=O ?
10.7
